- Test target: T1, SARS-CoV-2 C14S,C23S,C73S NSP9 (triSer-Nsp9) (SARS-CoV-2, UniProt P0DTC1 4141-4253)
- T1 construct: also called NSP (dissolved in ammonium acetate); INS (dissolved in DMSO/PBS)
- T1 chain: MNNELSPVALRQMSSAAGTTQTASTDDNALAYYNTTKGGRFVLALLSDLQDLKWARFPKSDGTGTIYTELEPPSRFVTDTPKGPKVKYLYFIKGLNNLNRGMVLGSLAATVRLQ
- Test name: ELISA, periplasmic extract; Nsp9 in DMSO/PBS (INS) coated
For each of the binders below, state its ELISA INS.
Numbers only.

2INS27 (VHH) VHH: QVQLQESGGGLVQAGGSLRLSCATSGSIFSSAVMGWYRQAPGNERELVALIGSSDTTDYSNSVKGRFTISRDNAKNTAYLRMNSLKPEDTAVYYCTAVKYGLGGFVYWGQGTQVTVSS    3

Field: next binder
If you can, please state the reported ELISA INS value of 3NSP52 (VHH) VHH: QVQLQESGGGLVQPEGSLRLSCAASGLTFDSYAIGWFRQAPGKEREFVAASIWSGDSGHYTGSVKGRFTISRDNAKNTVDLQMNSLKPEDTAVYYCAASASFLHSANYHMRAKWGYWGQGTQVTVSS . 2

Data provenance: patent US20240301039A1
